# credit: patent US20240376084A1

# Target under test: S. aureus Alpha hemolysin (Staphylococcus aureus, UniProt P09616)
# Sequence (P09616 27-319 limits assumed): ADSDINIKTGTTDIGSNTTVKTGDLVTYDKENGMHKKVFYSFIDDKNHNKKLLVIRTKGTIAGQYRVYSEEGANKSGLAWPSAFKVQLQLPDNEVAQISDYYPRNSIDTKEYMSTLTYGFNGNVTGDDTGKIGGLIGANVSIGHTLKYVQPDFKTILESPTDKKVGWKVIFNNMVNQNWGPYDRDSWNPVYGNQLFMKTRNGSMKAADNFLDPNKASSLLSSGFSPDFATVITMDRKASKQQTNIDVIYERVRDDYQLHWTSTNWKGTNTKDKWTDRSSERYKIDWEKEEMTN
# Method notes: cell-based
# Assay setup: A549-LDH Assay activity
pEC50: −log10 of the molar value.
Listing: pEC50 of selected molecules
Measured parameter: pEC50

>>> observed_value("Cc1cc2[nH]c(=O)c(=O)[nH]c2cc1S(=O)(=O)Nc1ccc(-c2ccc(F)cc2)c(C(F)(F)F)c1")
"7.00 to 7.52"
>>> observed_value("Cc1ccc(-c2ccc(NS(=O)(=O)c3cc4[nH]c(=O)c(=O)[nH]c4cc3C)cc2Cl)cc1Cl")
"6.00 to 7.00"
>>> observed_value("Cc1cc2[nH]c(=O)c(=O)[nH]c2cc1S(=O)(=O)Nc1ccc(-c2ccc3c(c2)NCC3)c(Cl)c1")
"6.00 to 7.00"
>>> observed_value("Cc1cc(NS(=O)(=O)c2cc3[nH]c(=O)c(=O)[nH]c3cc2C)ccc1OC(F)(F)F")
"> 7.52"

* * *

# Target under test: S. aureus Alpha hemolysin (Staphylococcus aureus)
# Method notes: cell-based
# Assay setup: A549-LDH Assay activity
pEC50: −log10 of the molar value.
Measured parameter: pEC50

>>> observed_value("Cc1cc2[nH]c(=O)c(=O)[nH]c2cc1S(=O)(=O)Nc1ccc(C2CCOCC2)cc1")
"6.00 to 7.00"
>>> observed_value("Cc1cc2[nH]c(=O)c(=O)[nH]c2cc1S(=O)(=O)Nc1ccc(-c2sccc2C)c(Cl)c1")
"6.00 to 7.00"
>>> observed_value("Cc1cc2[nH]c(=O)c(=O)[nH]c2cc1S(=O)(=O)Nc1ccc(C2=CCOCC2)cc1")
"6.00 to 7.00"
>>> observed_value("Cc1cc2[nH]c(=O)c(=O)[nH]c2cc1S(=O)(=O)Nc1ccc(-c2cccc(C#N)c2)c(Cl)c1")
"6.00 to 7.00"
>>> observed_value("Cc1cc2[nH]c(=O)c(=O)[nH]c2cc1S(=O)(=O)Nc1ccc(-c2ccc3cc[nH]c3c2)c(Cl)c1")
"> 7.52"
>>> observed_value("N#Cc1cc2[nH]c(=O)c(=O)[nH]c2cc1S(=O)(=O)Nc1ccc(OC(F)(F)F)cc1")
"6.00 to 7.00"
>>> observed_value("Cc1ccccc1-c1ccc(NS(=O)(=O)c2cc3[nH]c(=O)c(=O)[nH]c3cc2C)cc1Cl")
"6.00 to 7.00"
>>> observed_value("COCCn1cc(-c2ccc(NS(=O)(=O)c3cc4[nH]c(=O)c(=O)[nH]c4cc3C)cc2Cl)cn1")
"5.22 to 6.00"
>>> observed_value("Cc1cc2[nH]c(=O)c(=O)[nH]c2cc1S(=O)(=O)Nc1ccc(Cl)cc1")
"6.00 to 7.00"

* * *

# Target under test: S. aureus Alpha hemolysin (Staphylococcus aureus)
# Method notes: cell-based
# Assay setup: A549-LDH Assay activity
Measured parameter: EC50

>>> observed_value("Cc1cc2[nH]c(=O)c(=O)[nH]c2cc1S(=O)(=O)Nc1ccc(-c2cccc(Cl)c2)c(Cl)c1")
"30 to 100 nM"
>>> observed_value("C#Cc1cc(NS(=O)(=O)c2cc3[nH]c(=O)c(=O)[nH]c3cc2C)ccc1-c1ccc(C#N)cc1")
"30 to 100 nM"
>>> observed_value("Cc1cc2[nH]c(=O)c(=O)[nH]c2cc1S(=O)(=O)Nc1ccc(OC(F)(F)F)c(Cl)c1")
"30 to 100 nM"
>>> observed_value("Cc1cc2[nH]c(=O)c(=O)[nH]c2cc1S(=O)(=O)Nc1ccc(-c2ccccc2CO)c(Cl)c1")
"100 to 1000 nM"
>>> observed_value("Cc1cc2[nH]c(=O)c(=O)[nH]c2cc1S(=O)(=O)Nc1ccc(-c2ccc(=O)[nH]c2)c(Cl)c1")
"30 to 100 nM"
>>> observed_value("Cc1cc(NS(=O)(=O)c2cc3[nH]c(=O)c(=O)[nH]c3cc2Cl)ccc1-c1ccoc1")
"100 to 1000 nM"
>>> observed_value("Cc1cc2[nH]c(=O)c(=O)[nH]c2cc1S(=O)(=O)Nc1ccc(-n2cncn2)c(Cl)c1")
"100 to 1000 nM"
>>> observed_value("COc1cc(NS(=O)(=O)c2cc3[nH]c(=O)c(=O)[nH]c3cc2C)ccc1-c1ccccc1C")
"100 to 1000 nM"
>>> observed_value("Cc1cc2[nH]c(=O)c(=O)[nH]c2cc1S(=O)(=O)Nc1ccc(-c2ccc3c(c2)CCCN3)c(Cl)c1")
"100 to 1000 nM"
>>> observed_value("Cc1cc2[nH]c(=O)c(=O)[nH]c2cc1S(=O)(=O)Nc1ccc(-c2ccc3cn[nH]c3c2)c(Cl)c1")
"< 30 nM"
>>> observed_value("Cc1cc2[nH]c(=O)c(=O)[nH]c2cc1S(=O)(=O)Nc1ccc(-c2ccc3c(c2)OC(F)(F)O3)c(Cl)c1")
"30 to 100 nM"
>>> observed_value("Cc1cc2[nH]c(=O)c(=O)[nH]c2cc1S(=O)(=O)Nc1ccc(-c2ccoc2)c(Cl)c1")
"100 to 1000 nM"
>>> observed_value("Cc1cc2[nH]c(=O)c(=O)[nH]c2cc1S(=O)(=O)Nc1ccc(-c2cc(F)ccc2F)c(Cl)c1")
"100 to 1000 nM"
>>> observed_value("Cc1cc2[nH]c(=O)c(=O)[nH]c2cc1S(=O)(=O)Nc1ccc(-c2cccc(N(C)C)c2)c(Cl)c1")
"30 to 100 nM"
>>> observed_value("[2H]C([2H])([2H])c1cc2[nH]c(=O)c(=O)[nH]c2cc1S(=O)(=O)Nc1cnc(-c2ccc(F)cc2)c(Cl)c1")
"100 to 1000 nM"

* * *

# Target under test: hemolysin alpha from Staphylococcus aureus (Staphylococcus aureus)
pIC50: −log10 of the molar value.
Listing: pIC50 of selected compounds
Measured parameter: pIC50

>>> observed_value("CCOC(=O)c1ccccc1-c1ccc(NS(=O)(=O)c2cc3[nH]c(=O)c(=O)[nH]c3cc2C)cc1Cl")
"5.46 to 6.00"
>>> observed_value("Cc1cc2[nH]c(=O)c(=O)[nH]c2cc1S(=O)(=O)Nc1ccc(-c2cccc(N3CCCC3)c2)c(Cl)c1")
"> 7.52"
>>> observed_value("CCc1cc2[nH]c(=O)c(=O)[nH]c2cc1S(=O)(=O)Nc1ccc(Br)c(Cl)c1")
"6.00 to 7.00"
>>> observed_value("Cc1cc(NS(=O)(=O)c2cc3[nH]c(=O)c(=O)[nH]c3cc2F)cc(C)c1Br")
"6.00 to 7.00"

* * *

IC50 values recorded for hemolysin alpha from Staphylococcus aureus (Staphylococcus aureus)
Measured parameter: IC50

>>> observed_value("Cc1cc(NS(=O)(=O)c2cc3[nH]c(=O)c(=O)[nH]c3cc2Cl)cc(C)c1-c1ccoc1")
"100 to 1000 nM"
>>> observed_value("CC(C)c1cc2[nH]c(=O)c(=O)[nH]c2cc1S(=O)(=O)Nc1ccc(-c2ccccc2)c(Cl)c1")
"100 to 1000 nM"
>>> observed_value("CN(C)c1cccc(-c2ccc(NS(=O)(=O)c3cc4[nH]c(=O)c(=O)[nH]c4cc3Cl)cc2Cl)c1")
"< 30 nM"
>>> observed_value("O=c1[nH]c2cc(Cl)c(S(=O)(=O)Nc3ccc(Br)c(Cl)c3)cc2[nH]c1=O")
"100 to 1000 nM"
>>> observed_value("Cc1ccc(-c2ccc(NS(=O)(=O)c3cc4[nH]c(=O)c(=O)[nH]c4cc3C)cc2Cl)o1")
"30 to 100 nM"
>>> observed_value("Cc1cc2[nH]c(=O)c(=O)[nH]c2cc1S(=O)(=O)Nc1cc(C)c(-c2cccs2)c(C)c1")
"30 to 100 nM"
>>> observed_value("Cc1cc(NS(=O)(=O)c2cc3[nH]c(=O)c(=O)[nH]c3cc2C)ccc1C(C)C")
"100 to 1000 nM"
>>> observed_value("O=c1[nH]c2cc(Cl)c(S(=O)(=O)Nc3ccc(C4CCCCC4)cc3)cc2[nH]c1=O")
"100 to 1000 nM"
>>> observed_value("Cc1cc2[nH]c(=O)c(=O)[nH]c2cc1S(=O)(=O)Nc1ccc(-c2ccnc(Cl)c2)c(Cl)c1")
"< 30 nM"

* * *

Listing: EC50 of selected molecules
# Target under test: hemolysin alpha from Staphylococcus aureus (Staphylococcus aureus)
# Method notes: cell-based
Measured parameter: EC50

>>> observed_value("Cc1cc2[nH]c(=O)c(=O)[nH]c2cc1S(=O)(=O)Nc1ccc(-c2ccc(N(C)C)cc2)c(Cl)c1")
"0.1 to 1 µM"
>>> observed_value("Cc1cc2[nH]c(=O)c(=O)[nH]c2cc1S(=O)(=O)Nc1ccc(-c2cccc(C(F)(F)F)c2)c(Cl)c1")
"0.03 to 0.1 µM"
>>> observed_value("Cc1cc2[nH]c(=O)c(=O)[nH]c2cc1S(=O)(=O)Nc1ccc(-n2cncn2)c(Cl)c1")
"1 to 3.5 µM"
>>> observed_value("Cc1cc2[nH]c(=O)c(=O)[nH]c2cc1S(=O)(=O)Nc1ccc(-c2ccc(F)cc2)c(N2CCOCC2)c1")
"0.1 to 1 µM"
>>> observed_value("Cc1cc2[nH]c(=O)c(=O)[nH]c2cc1S(=O)(=O)Nc1ccc(-c2cccc(CO)c2)c(Cl)c1")
"0.03 to 0.1 µM"
>>> observed_value("Cc1cc2[nH]c(=O)c(=O)[nH]c2cc1S(=O)(=O)Nc1ccc(-c2ccc(F)cc2)c(C(F)(F)F)c1")
"< 0.03 µM"
>>> observed_value("Cc1cc2[nH]c(=O)c(=O)[nH]c2cc1S(=O)(=O)Nc1ccc(-c2ccc(S(C)(=O)=O)cc2)c(Cl)c1")
"1 to 3.5 µM"
>>> observed_value("Cc1cc2[nH]c(=O)c(=O)[nH]c2cc1S(=O)(=O)Nc1ccc(-c2ccc(F)cc2)c(S(C)(=O)=O)c1")
"1 to 3.5 µM"
>>> observed_value("Cc1cc2[nH]c(=O)c(=O)[nH]c2cc1S(=O)(=O)Nc1ccc2c(c1)B(O)OC2")
"0.1 to 1 µM"
>>> observed_value("Cc1cc2[nH]c(=O)c(=O)[nH]c2cc1S(=O)(=O)Nc1ccc(-c2ccc(C#N)cc2)c(C(F)(F)F)c1")
"< 0.03 µM"
>>> observed_value("Cc1cc2[nH]c(=O)c(=O)[nH]c2cc1S(=O)(=O)Nc1ccc(OC(F)F)cc1")
"0.1 to 1 µM"
>>> observed_value("Cc1cc2[nH]c(=O)c(=O)[nH]c2cc1S(=O)(=O)Nc1ccc(-n2ccnc2)c(Cl)c1")
"0.1 to 1 µM"
>>> observed_value("Cc1cc2[nH]c(=O)c(=O)[nH]c2cc1S(=O)(=O)Nc1ccc(-c2cccc(N3CCN(C)CC3)c2)c(Cl)c1")
"0.1 to 1 µM"
